Target: Cst6 (UniProt P40535)
Sequence (P40535 whole entry): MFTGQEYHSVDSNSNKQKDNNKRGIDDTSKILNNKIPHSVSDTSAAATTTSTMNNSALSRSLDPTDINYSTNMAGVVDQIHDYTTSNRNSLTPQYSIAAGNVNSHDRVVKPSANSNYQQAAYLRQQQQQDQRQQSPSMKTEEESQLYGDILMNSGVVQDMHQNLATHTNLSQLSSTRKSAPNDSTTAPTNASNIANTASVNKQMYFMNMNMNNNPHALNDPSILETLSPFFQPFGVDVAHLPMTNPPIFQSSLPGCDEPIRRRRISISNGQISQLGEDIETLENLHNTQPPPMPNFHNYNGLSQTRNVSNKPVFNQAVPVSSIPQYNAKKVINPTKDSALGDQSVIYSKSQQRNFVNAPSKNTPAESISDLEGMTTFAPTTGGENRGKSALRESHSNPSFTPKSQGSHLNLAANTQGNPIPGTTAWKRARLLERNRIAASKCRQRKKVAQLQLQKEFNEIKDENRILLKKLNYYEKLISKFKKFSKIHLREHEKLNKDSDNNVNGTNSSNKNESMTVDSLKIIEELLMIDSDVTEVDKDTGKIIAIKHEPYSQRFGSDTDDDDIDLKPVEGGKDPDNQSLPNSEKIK
Assay: PBM E-score (8-mer binding enrichment) (E-score (-0.5 to 0.5)); higher = stronger / more preferred TF binding
Settings: protein concentration: 200 nM; construct: GST-DNA-binding domain
Over roughly 33,000 sequences, “E-score (-0.5 to 0.5)” has its median near -0.016; the highest 2% begin near 0.31. This is one part of a sample in which the highest values are shown more often than they occur.
Here, each record is paired with measured PBM E-score data.
Please respond with just the number, no unit label.

These solved cases illustrate the format of a correct answer.
[
  {
    "SEQUENCE_CONTENT": "ACGGTCTG",
    "TARGET_OR_TEST_SYSTEM": "Cst6 (UniProt P40535)",
    "NUMERIC_RESULT": -0.189
  },
  {
    "SEQUENCE_CONTENT": "GGCCGCTA",
    "TARGET_OR_TEST_SYSTEM": "Cst6 (UniProt P40535)",
    "NUMERIC_RESULT": -0.232
  },
  {
    "SEQUENCE_CONTENT": "ATATGACG",
    "TARGET_OR_TEST_SYSTEM": "Cst6 (UniProt P40535)",
    "NUMERIC_RESULT": 0.472
  },
  {
    "SEQUENCE_CONTENT": "AGATGATG",
    "TARGET_OR_TEST_SYSTEM": "Cst6 (UniProt P40535)",
    "NUMERIC_RESULT": 0.346
  }
]

The recorded PBM E-score for entry CCGGTGAA equals 0.0804

The recorded PBM E-score for entry CTATGACC equals 0.193

The recorded PBM E-score for entry CTGAGGTA equals 0.0121

The recorded PBM E-score for entry CCGGTGAC equals 0.335

The recorded PBM E-score for entry AACGTCGT equals 0.0196

The recorded PBM E-score for entry CAAACCCC equals -0.178

The recorded PBM E-score for entry ATATGACC equals 0.108

The recorded PBM E-score for entry ATGAACTG equals 0.12

The recorded PBM E-score for entry TCTGTCAA equals 0.111
